- Procedure Summary: Tested for inhibition against CD23 (IgE receptor) proteolysis in membranes derived from RPM18866 cells (a human B-cell line)
pIC50: −log10 of the molar value.
Measured Property: pIC50

Mol Smiles	Result
CN(C)C[C@H](CC(=O)NO)C(=O)N[C@@H](Cc1ccccc1)C(=O)NCc1ccccc1	< 4.70
CC(C)C[C@@H](CC(=O)NO)C(=O)N[C@@H](Cc1ccccc1)C(=O)NCc1ccccc1	< 4.70
O=C(CCC(=O)N[C@@H](Cc1ccccc1)C(=O)NCc1ccccc1)NO	< 4.70
O=C(C[C@H](C(=O)N[C@@H](Cc1ccccc1)C(=O)NCc1ccccc1)c1cccc2ccccc12)NO	< 4.70

Source of measurements: BindingDB's records for doi:10.1016/s0960-894x(97)10148-2
